Test system: 201T
Protocol Details: relative viability (nuclei count vs DMSO), 5 days (fraction); higher = more cells survive
Study Conditions: first compound 0.4 µM
For each record, write down the corresponding relative viability.

Qu. Item Cc1sc2c(c1C)C(c1ccc(Cl)cc1)=N[C@@H](CC(=O)OC(C)(C)C)c1nnc(C)n1-2 [JQ1] + CCNC(=O)c1noc(-c2cc(C(C)C)c(O)cc2O)c1-c1ccc(CN2CCOCC2)cc1 [Luminespib] (partner 0.01 µM) has what recorded relative viability?
Ans. 0.745

Qu. Same question, Cc1sc2c(c1C)C(c1ccc(Cl)cc1)=N[C@@H](CC(=O)OC(C)(C)C)c1nnc(C)n1-2 [JQ1] + CC(=O)c1c(C)c2cnc(Nc3ccc(N4CCNCC4)cn3)nc2n(C2CCCC2)c1=O [Palbociclib] (partner 0.5 µM) this time
Ans. 0.298

Qu. Same question, Cc1sc2c(c1C)C(c1ccc(Cl)cc1)=N[C@@H](CC(=O)OC(C)(C)C)c1nnc(C)n1-2 [JQ1] + COc1cc2c(Oc3ccc(NC(=O)C4(C(=O)Nc5ccc(F)cc5)CC4)cc3F)ccnc2cc1OCCCN1CCOCC1 [Foretinib] (partner 0.25 µM) this time
Ans. 0.514

Qu. Same question, Cc1sc2c(c1C)C(c1ccc(Cl)cc1)=N[C@@H](CC(=O)OC(C)(C)C)c1nnc(C)n1-2 [JQ1] + Cc1cc(Nc2cc(N3CCN(C)CC3)nc(Sc3ccc(NC(=O)C4CC4)cc3)n2)n[nH]1 [Tozasertib] (partner 0.1 µM) this time
Ans. 0.613

FYI, the data here is from the supplement of paper PMC10307832.
